assayed target: IGF-1 receptor on the cells of the PathHunter IGF1R Functional Assay (DiscoverX) (UniProt P08069 31-1367)
Sequence (P08069 31-1367): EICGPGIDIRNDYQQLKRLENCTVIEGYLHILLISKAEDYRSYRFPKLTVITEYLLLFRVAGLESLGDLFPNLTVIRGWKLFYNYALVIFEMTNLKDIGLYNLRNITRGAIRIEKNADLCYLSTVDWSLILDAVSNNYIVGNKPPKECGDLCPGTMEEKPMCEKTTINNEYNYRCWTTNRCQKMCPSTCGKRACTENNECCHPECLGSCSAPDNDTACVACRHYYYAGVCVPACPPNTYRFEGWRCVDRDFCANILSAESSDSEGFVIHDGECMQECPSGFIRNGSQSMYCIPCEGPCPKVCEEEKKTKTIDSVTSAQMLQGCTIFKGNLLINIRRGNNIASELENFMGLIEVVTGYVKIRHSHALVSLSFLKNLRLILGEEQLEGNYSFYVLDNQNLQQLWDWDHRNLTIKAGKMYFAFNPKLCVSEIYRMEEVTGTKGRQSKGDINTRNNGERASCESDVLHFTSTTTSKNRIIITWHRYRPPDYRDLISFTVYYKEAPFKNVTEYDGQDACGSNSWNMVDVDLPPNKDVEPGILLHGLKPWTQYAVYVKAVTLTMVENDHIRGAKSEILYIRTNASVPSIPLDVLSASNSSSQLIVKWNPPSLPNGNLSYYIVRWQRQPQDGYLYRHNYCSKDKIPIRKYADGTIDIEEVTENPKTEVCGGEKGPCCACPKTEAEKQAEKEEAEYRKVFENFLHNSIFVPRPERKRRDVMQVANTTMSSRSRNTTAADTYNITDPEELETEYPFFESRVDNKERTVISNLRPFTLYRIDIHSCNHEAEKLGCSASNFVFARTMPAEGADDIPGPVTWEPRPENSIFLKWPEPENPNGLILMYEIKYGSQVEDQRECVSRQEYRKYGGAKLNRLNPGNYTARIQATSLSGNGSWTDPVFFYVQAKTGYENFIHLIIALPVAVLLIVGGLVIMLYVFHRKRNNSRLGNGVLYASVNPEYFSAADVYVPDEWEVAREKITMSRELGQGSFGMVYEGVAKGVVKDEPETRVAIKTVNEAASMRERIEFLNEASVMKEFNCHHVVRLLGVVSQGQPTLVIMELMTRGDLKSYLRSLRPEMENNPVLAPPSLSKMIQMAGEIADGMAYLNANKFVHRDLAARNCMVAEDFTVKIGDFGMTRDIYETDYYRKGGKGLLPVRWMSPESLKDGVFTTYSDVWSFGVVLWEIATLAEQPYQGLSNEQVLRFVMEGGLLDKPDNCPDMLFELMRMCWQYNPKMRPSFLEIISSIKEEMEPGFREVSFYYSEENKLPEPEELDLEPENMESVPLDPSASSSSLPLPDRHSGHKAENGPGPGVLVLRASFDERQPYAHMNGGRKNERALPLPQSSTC
assay comment: cell-based or functional assay
# Signal activation EC50 vs IGF11-16, PathHunter per entry
Reply numerically in ratio vs IGF11-16, unit not repeated.

Below, 3 binders whose answers are already recorded.
- binder: "IGF11-16 with alanine substitution of N at position 59 (CDR-H2) (antibody, mouse IgG1, V domains shown) VH: QIQLQQPGAELVKPGASVKLSCKAPGYTFTSYWMHWVKQRPGQGLEWIGETNPSNSVTAYNEKFKSKATLTVDKSSSTAYMQLSSLTSEDSAVYYCTIGRGRGFAYWGQGTLVTVSA VL: DIQMNQSPSSLSASLGDTITITCRASQNINFWLSWCQQKPGNIPKLLIYKASNLHTGVPSRFSGSGSGTDFTLTISSLQPEDIATYYCLQGQSYPYTFGGGTKLEIK"
  recorded result: 2.3
- binder: "IGF11-16 with alanine substitution of N at position 55 (CDR-H2) (antibody, mouse IgG1, V domains shown) VH: QIQLQQPGAELVKPGASVKLSCKAPGYTFTSYWMHWVKQRPGQGLEWIGETNPSASVTNYNEKFKSKATLTVDKSSSTAYMQLSSLTSEDSAVYYCTIGRGRGFAYWGQGTLVTVSA VL: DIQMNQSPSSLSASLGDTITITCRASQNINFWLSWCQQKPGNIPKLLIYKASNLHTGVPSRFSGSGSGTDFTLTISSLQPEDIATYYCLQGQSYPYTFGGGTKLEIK"
  recorded result: 3
- binder: "IGF11-16 with alanine substitution of S at position 56 (CDR-H2) (antibody, mouse IgG1, V domains shown) VH: QIQLQQPGAELVKPGASVKLSCKAPGYTFTSYWMHWVKQRPGQGLEWIGETNPSNAVTNYNEKFKSKATLTVDKSSSTAYMQLSSLTSEDSAVYYCTIGRGRGFAYWGQGTLVTVSA VL: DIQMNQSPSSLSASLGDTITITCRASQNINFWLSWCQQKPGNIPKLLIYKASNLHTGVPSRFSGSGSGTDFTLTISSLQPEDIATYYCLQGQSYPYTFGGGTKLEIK"
  recorded result: 2.9

We now examine a further binder.
Requested field: Signal activation EC50 vs IGF11-16, PathHunter. Item: IGF11-16 with alanine substitution of H at position 35 (CDR-H1) (antibody, mouse IgG1, V domains shown) VH: QIQLQQPGAELVKPGASVKLSCKAPGYTFTSYWMAWVKQRPGQGLEWIGETNPSNSVTNYNEKFKSKATLTVDKSSSTAYMQLSSLTSEDSAVYYCTIGRGRGFAYWGQGTLVTVSA VL: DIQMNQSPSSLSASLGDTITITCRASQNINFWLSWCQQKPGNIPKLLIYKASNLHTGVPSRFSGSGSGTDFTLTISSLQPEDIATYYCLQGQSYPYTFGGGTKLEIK
2.2
